Molecular target: DLL4 extracellular domain (R&D systems, catalog #1506-D4/CF) (UniProt Q9NR61 27-529, limits assumed)
Sequence (Q9NR61 27-529 limits assumed): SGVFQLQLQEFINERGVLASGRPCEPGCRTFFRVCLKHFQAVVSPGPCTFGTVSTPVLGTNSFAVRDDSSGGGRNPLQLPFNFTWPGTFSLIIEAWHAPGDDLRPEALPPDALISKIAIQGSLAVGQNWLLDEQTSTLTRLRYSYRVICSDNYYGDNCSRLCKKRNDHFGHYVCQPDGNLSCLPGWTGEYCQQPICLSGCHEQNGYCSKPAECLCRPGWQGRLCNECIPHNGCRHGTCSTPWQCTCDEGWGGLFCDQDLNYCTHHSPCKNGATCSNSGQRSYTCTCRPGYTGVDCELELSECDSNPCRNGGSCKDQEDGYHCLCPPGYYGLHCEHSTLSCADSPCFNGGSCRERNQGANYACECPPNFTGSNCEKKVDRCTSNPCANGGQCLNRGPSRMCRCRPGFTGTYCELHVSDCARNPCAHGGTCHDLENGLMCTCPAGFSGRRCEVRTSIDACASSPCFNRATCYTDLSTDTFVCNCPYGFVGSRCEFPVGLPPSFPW
Experiment: cell-based or functional assay
Reported % inhibition 10 µg/ml, AVERAGE (HUVEC proliferation on coated DLL4) values for the following binders.
EXPERIMENTAL_READOUT: % inhibition 10 µg/ml, AVERAGE (HUVEC proliferation on coated DLL4) (%)

| BINDER | MEASURED_NUMBER |
| --- | --- |
| 9G8 (antibody, IgG4, V domains shown, Fully human; used for IgG4 rows and where no isotype is printed; also called 9G8 IgG4) VH: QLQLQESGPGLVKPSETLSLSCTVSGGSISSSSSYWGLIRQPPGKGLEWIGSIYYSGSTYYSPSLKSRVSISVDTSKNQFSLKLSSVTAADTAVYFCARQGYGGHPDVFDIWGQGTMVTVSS VL: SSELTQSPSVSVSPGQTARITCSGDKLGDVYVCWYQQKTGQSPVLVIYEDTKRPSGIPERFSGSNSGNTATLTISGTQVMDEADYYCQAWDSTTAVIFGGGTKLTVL | 77 |
| 21H3 (antibody, IgG4, V domains shown, Fully human; used for IgG4 rows and where no isotype is printed; also called 21H3 IgG4) VH: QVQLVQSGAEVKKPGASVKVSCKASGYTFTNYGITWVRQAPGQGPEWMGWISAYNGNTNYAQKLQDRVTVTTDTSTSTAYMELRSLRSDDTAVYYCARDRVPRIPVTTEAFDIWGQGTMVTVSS VL: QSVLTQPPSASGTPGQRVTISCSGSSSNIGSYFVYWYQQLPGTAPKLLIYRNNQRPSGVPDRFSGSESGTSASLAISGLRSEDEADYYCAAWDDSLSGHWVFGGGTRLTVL | 89 |
| 4B3 (antibody, IgG4, V domains shown, Fully human; also used where no isotype is printed) VH: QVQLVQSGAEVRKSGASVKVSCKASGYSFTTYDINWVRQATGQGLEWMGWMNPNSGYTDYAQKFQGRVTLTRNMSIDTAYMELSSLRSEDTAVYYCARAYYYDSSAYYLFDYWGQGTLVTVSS VL: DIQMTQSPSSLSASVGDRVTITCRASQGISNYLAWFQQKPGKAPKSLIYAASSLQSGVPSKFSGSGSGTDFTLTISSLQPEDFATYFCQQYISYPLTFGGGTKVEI | 44 |
| 3A7 (antibody, IgG4, V domains shown, Fully human; also used where no isotype is printed) VH: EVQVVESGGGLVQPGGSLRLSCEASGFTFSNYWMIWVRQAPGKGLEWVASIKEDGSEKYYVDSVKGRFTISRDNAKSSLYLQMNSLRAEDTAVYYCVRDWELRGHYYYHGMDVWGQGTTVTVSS VL: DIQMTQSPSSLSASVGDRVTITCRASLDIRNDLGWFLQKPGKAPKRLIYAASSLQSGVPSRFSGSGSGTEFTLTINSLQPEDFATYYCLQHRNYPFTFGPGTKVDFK | 90 |

Values compiled from patent US20100196385A1.
